This collection of values is drawn from patent US10071967B2.

# EXPERIMENT NOTES: log P by HPLC on a reversed-phase column (C 18), EEC Directive 79/831 Annex V.A8
# Assay type: physicochemical
# APPLIED CONDITIONS: HPLC, reversed-phase column (C 18), 40° C.; 0.1% aqueous formic acid and acetonitrile, linear gradient 10% to 90% acetonitrile
PARAMETER MEASURED: logP
One number for each entry.

Example entries begin here.
{"MOLECULE": "CCC1(c2cc(C)ccc2CN(C(=S)c2cn(C)nc2C(F)F)C2CC2)CC1 [Example 1.076]", "logP": 4.67}
{"MOLECULE": "Cc1cc(C(=O)N(Cc2ccc(Cl)cc2C2(C)CC2)C2CC2)c(C(F)F)o1 [Example 1.008]", "logP": 4.98}
{"MOLECULE": "Cc1ccc(C2(C(C)C)CC2)c(CN(C(=O)c2cc(C)oc2C)C2CC2)c1 [Example 1.118]", "logP": 5.65}
{"MOLECULE": "Cc1ccc(C2(C(C)C)CC2)c(CN(C(=O)c2cc(C)oc2C(F)F)C2CC2)c1 [Example 1.120]", "logP": 5.54}

Give me logP for each of these molecules, listed below.
1. CCOC1(c2ccc(C)cc2CN(C(=O)c2cn(C)nc2C)C2CC2)CC1 [Example 1.129]
2. CCC1(c2ccc(Cl)cc2CN(C(=O)c2c(OC(F)F)nn(C)c2F)C2CC2)CC1 [Example 1.089]

1. 3.02
2. 4.78

Working through the 6 molecules below one at a time, give logP for each.
1. Cc1ccc(C2(C)CC2)c(CN(C(=S)c2sccc2I)C2CC2)c1 [Example 1.054]
2. CCC1(c2cc(C)ccc2CN(C(=O)c2cn(C)nc2C(F)F)C2CC2)CC1 [Example 1.074]
3. Cc1ccc(C2(C(C)C)CC2)c(CN(C(=O)c2cn(C)nc2C(F)F)C2CC2)c1 [Example 1.123]
4. CCC1(c2ccc(C)cc2CN(C(=O)c2c(C)nn(C)c2F)C2CC2)CC1 [Example 1.093]
5. Cc1ccc(C2(C(C)C)CC2)c(CN(C(=O)c2cn(C)nc2C)C2CC2)c1 [Example 1.124]
6. Cc1cc(C(=O)N(Cc2cc(Br)ccc2C2(C)CC2)C2CC2)c(C)o1 [Example 1.028]

1: 5.72; 2: 4.16; 3: 4.49; 4: 4.14; 5: 3.96; 6: 5.08

* * *

# EXPERIMENT NOTES: log P by HPLC on a reversed-phase column (C 18), EEC Directive 79/831 Annex V.A8
# Type: physicochemical
# APPLIED CONDITIONS: reversed-phase C18 HPLC column; given in the preparation examples
# Protocol: In table 1, the log P values were determined in accordance with EEC Directive 79/831 Annex V.A8 by HPLC (High Performance Liquid Chromatography) on a reversed-phase column (C 18), using the method described below: Temperature: 40° C.; Mobile phases: 0.1% aqueous formic acid and acetonitrile; linear gradient from 10% acetonitrile to 90% acetonitrile. […]
PARAMETER MEASURED: chromatographic logP

Suppose we examine the compound `Cn1cc(C(=O)N(Cc2cc(F)ccc2C2(C(F)F)CC2)C2CC2)c(C(F)F)n1` ; what chromatographic logP value has been reported?
3.09

* * *

# EXPERIMENT NOTES: log P by HPLC on a reversed-phase column (C 18), EEC Directive 79/831 Annex V.A8
# Format: physicochemical
# APPLIED CONDITIONS: HPLC, reversed-phase column (C 18), 40° C.; 0.1% aqueous formic acid and acetonitrile, linear gradient 10% to 90% acetonitrile
# Experimental: In table 1, the log P values were determined in accordance with EEC Directive 79/831 Annex V.A8 by HPLC (High Performance Liquid Chromatography) on a reversed-phase column (C 18), using the method described below: Temperature: 40° C.; Mobile phases: 0.1% aqueous formic acid and acetonitrile; linear gradient from 10% acetonitrile to 90% acetonitrile. […]
Could you please report measured logP for the items listed next?
Answers are plain numbers.

Take a look at these entries with their results.
{"COMPOUND": "Cn1nc(C(=S)N(Cc2ccc(Cl)cc2C2(C)CC2)C2CC2)c(C(F)F)n1 [Example 1.011]", "PARAMETER MEASURED": "logP", "RESULT": 5.11}
{"COMPOUND": "CCOC1(c2ccc(C)cc2CN(C(=O)c2c(C)nn(C)c2F)C2CC2)CC1 [Example 1.127]", "PARAMETER MEASURED": "logP", "RESULT": 3.53}
{"COMPOUND": "Cn1cc(C(=O)N(Cc2cc(F)ccc2C2(C)CC2)C2CC2)c(C(F)F)n1 [Example 1.032]", "PARAMETER MEASURED": "logP", "RESULT": 3.51}

For each of the compounds below, state logP.
1. Cc1ccc(C2(C)CC2)c(CN(C(=O)c2ccoc2C(F)F)C2CC2)c1 [Example 1.043]
2. Cn1cc(C(=O)N(Cc2c(Br)cccc2C2(C(F)F)CC2)C2CC2)c(C(F)F)n1 [Example 1.142]
3. Cn1cc(C(=S)N(Cc2cc(Cl)ccc2C2(C)CC2)C2CC2)c(C(F)F)n1 [Example 1.031]
4. CCOC1(c2ccc(C)cc2CN(C(=O)c2nn(C)cc2C(F)F)C2CC2)CC1 [Example 1.130]
5. C=Cc1cc(C(=O)N(Cc2cc(C)ccc2C2(C)CC2)C2CC2)c(C)o1 [Example 1.049]

[4.35, 3.39, 4.37, 3.94, 5.00]
